Each recorded value in this set is attributed to patent US20210309732A1.

- assayedTarget: T1, recombinant human GM-CSF (human, UniProt P04141 18-144)
- T1 construct: also called rhGM-CSF; CSF2
- T1 sequence (P04141 18-144 limits assumed): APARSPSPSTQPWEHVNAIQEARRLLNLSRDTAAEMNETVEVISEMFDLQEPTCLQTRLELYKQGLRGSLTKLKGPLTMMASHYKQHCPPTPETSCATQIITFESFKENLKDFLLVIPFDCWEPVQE
- assayName: ELISA on coated rhGM-CSF, UBA relative to 1D2
- Method: Some of the residues in the CDRs are essential for epitope binding affinity and/or specificity. A number of computational methods were developed to detect these functional residues, generally known as ‘specificity-determining resides’ (SDRs). […] The ELISA assay was developed with 100 μl developing buffer containing H₂O₂-Amplx Red per well in the dark for 5 min and the fluorescence intensity was read at Ex.530/Em.590 nm, with cutoff at 570 nm. […]
experimentalReadout: binding affinity % of 1D2 (%)
Record the value in %, omitting the unit from your answer.

# example entries with known answers
[[record]]
binder = "1D2 SDR mutant HQ105E (antibody, IgG1, V domains shown, also called X7 E) VH: QVQLVQSGAEVKKPGASVKVSCEASGYTFTDKYLHWVRQAPGQGLEWMAWINPKSGGTFYAQNFKGRVTVTRDTSINTAYLELTSLRLDDTSTYYCARGRDYYDEGAADLWGQGTMVTVSS VL: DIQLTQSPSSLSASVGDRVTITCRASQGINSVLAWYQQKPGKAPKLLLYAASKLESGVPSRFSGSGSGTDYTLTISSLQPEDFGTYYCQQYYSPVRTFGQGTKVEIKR"
unitlabel = "%"
valuemeasured = 173

[[record]]
binder = "1D2 SDR mutant HK54T (antibody, IgG1, V domains shown, also called X3 T) VH: QVQLVQSGAEVKKPGASVKVSCEASGYTFTDKYLHWVRQAPGQGLEWMAWINPTSGGTFYAQNFKGRVTVTRDTSINTAYLELTSLRLDDTSTYYCARGRDYYDQGAADLWGQGTMVTVSS VL: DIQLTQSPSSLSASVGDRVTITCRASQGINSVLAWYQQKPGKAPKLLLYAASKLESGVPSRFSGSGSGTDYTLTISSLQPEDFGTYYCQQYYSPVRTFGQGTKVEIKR"
unitlabel = "%"
valuemeasured = 101

[[record]]
binder = "1D2 SDR mutant HK54R (antibody, IgG1, V domains shown, also called X3 R) VH: QVQLVQSGAEVKKPGASVKVSCEASGYTFTDKYLHWVRQAPGQGLEWMAWINPRSGGTFYAQNFKGRVTVTRDTSINTAYLELTSLRLDDTSTYYCARGRDYYDQGAADLWGQGTMVTVSS VL: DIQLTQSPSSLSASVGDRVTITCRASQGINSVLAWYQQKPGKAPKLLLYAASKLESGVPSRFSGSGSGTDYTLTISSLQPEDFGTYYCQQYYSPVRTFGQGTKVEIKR"
unitlabel = "%"
valuemeasured = 98

[[record]]
binder = "1D2 SDR mutant HY103H (antibody, IgG1, V domains shown, also called X6 H) VH: QVQLVQSGAEVKKPGASVKVSCEASGYTFTDKYLHWVRQAPGQGLEWMAWINPKSGGTFYAQNFKGRVTVTRDTSINTAYLELTSLRLDDTSTYYCARGRDYHDQGAADLWGQGTMVTVSS VL: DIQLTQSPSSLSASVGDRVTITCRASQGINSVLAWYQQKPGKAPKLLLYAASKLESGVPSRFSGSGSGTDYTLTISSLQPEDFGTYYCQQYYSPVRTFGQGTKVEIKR"
unitlabel = "%"
valuemeasured = 109


// binding affinity % of 1D2 lookup, key: 1D2 SDR mutant HR100V (antibody, IgG1, V domains shown, also called X4 V) VH: QVQLVQSGAEVKKPGASVKVSCEASGYTFTDKYLHWVRQAPGQGLEWMAWINPKSGGTFYAQNFKGRVTVTRDTSINTAYLELTSLRLDDTSTYYCARGVDYYDQGAADLWGQGTMVTVSS VL: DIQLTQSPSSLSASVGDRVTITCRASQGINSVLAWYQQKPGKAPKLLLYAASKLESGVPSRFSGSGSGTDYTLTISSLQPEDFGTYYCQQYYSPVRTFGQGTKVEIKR
74
